Experiment: chemical genetic growth profiling, strain panel (AID 1159580);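 note: tested at 20 µM; growth read once vehicle control cultures reached saturation at 30 °C; 1 = growth at the plate median or of vehicle wells; lower values mean less growth of the strain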
Conditions: S. cerevisiae deletion strains, growth OD, locus YFR003C, strain YPI1, hits give low values
The whole screen tested about 5,500 compounds, of which about 2,000 (36%) were called active. Roughly 18% stayed inconclusive and do not appear here. The list shows a part of the results.
normalized growth by entry:
Reply with just the number.

Cc1cc(C(=O)NNS(=O)(=O)c2ccc(F)c(Cl)c2)nn1-c1c(Cl)cc(Cl)cc1Cl
0.981

Lab book: normalized growth of `Cc1nn(C)c(C(=O)Sc2ccc(OC(F)(F)F)cc2)c1[N+](=O)[O-]` noted as 0.978

Lab book: normalized growth of `N/C(Cn1ccc(C(F)(F)F)n1)=N/OS(=O)(=O)c1cccc(Cl)c1Cl` noted as 0.985

Lab book: normalized growth of `N#C/C(=N/Nc1ccccc1)C(=O)c1ccccc1OC(F)(F)F` noted as 0.918

Lab book: normalized growth of `N#C/C(=N/Nc1ccc(F)cc1)C(=O)c1ccccc1` noted as 0.854

Lab book: normalized growth of `COc1cc(Cl)ccc1N/N=C(/C#N)C(N)=O` noted as 0.0947

Lab book: normalized growth of `Oc1c(Cl)cc(Cl)cc1C=Nc1nc(-c2ccc3ccccc3c2)cs1` noted as 0.961

Lab book: normalized growth of `Cc1ccc(S(=O)(=O)NC(=O)Nc2ccc(Sc3ccccc3)nc2Sc2ccccc2)cc1` noted as 0.969

Lab book: normalized growth of `O=C(ON=C1CCCCC1)c1ccc([N+](=O)[O-])cc1` noted as 0.953

Lab book: normalized growth of `Cc1cc(C)cc(Sc2ccc3nnc(-c4ccccc4)n3n2)c1` noted as 0.991

Lab book: normalized growth of `O=C(NCc1ccc(Cl)c(Cl)c1)c1cccnc1OCC(F)(F)F` noted as 0.949

----------
Assay: chemical genetic growth profiling, strain panel (AID 1159580);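 note: tested at 20 µM; growth read once vehicle control cultures reached saturation at 30 °C; 1 = growth at the plate median or of vehicle wells; lower values mean less growth of the strain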
Conditions: S. cerevisiae deletion strains, growth OD, locus YPR167C, strain met16, hits give low values
About 2,000 (36%) of roughly 5,500 compounds were called active. Not shown: some 18% with an inconclusive outcome. This is one part of the list.
experimental.endpoint: normalized growth
Reply with just the number.

Nc1nc(=S)c2[nH]cnc2[nH]1
1
COc1cc(CNC(=O)CCCC/C=C/C(C)C)ccc1O
1.01

Lab book: normalized growth of `CC[C@@]1(O)C[C@H](O[C@H]2C[C@H](N(C)C)[C@H](O)[C@H](C)O2)c2c(cc3c(c2O)C(=O)c2c(O)cccc2C3=O)[C@H]1C(=O)OC` noted as 0.882

----------
normalized growth by entry:
Test: chemical genetic growth profiling, strain panel (AID 1159580);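 note: tested at 20 µM; growth read once vehicle control cultures reached saturation at 30 °C; 1 = growth at the plate median or of vehicle wells; lower values mean less growth of the strain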
Conditions: S. cerevisiae deletion strains, growth OD, locus YER111C, strain swi4, hits give low values
About 2,000 (36%) of roughly 5,500 compounds were called active. Not shown: some 18% with an inconclusive outcome. The list shows a part of the results.
Reply with just the number.

COc1ccc(C(=O)O)cc1OC
1.01
C[C@]12CCC(=O)C=C1C=CC1C2CC[C@@]2(C)C1CC[C@@]21CCC(=O)O1 (stereo partly drawn)
0.962
c1ccc2c(c1)sc1ccccc12
0.823
COC(=O)C1=COC(OC2OC(CO)C(O)C(O)C2O)C2C(C)CC(=O)C12 (stereo not drawn)
1.03
CC[C@@H](C(=O)C(C)[C@@H](O)[C@H](C)CCc1ccc(C)c(O)c1C(=O)O)C1OC(CC)(C2CC[C@](O)(CC)[C@H](C)O2)C[C@@H]1C (stereo partly drawn)
1.07
CCN(CC)C(=O)N1CCN(C)CC1
0.969

Lab book: normalized growth of `COc1ccc([C@H]2Oc3c(I)c(OC)cc(OC)c3C[C@@H]2O)cc1OC` noted as 1.01

Lab book: normalized growth of CN1C2CCC1CC(OC(c1ccccc1)c1ccccc1)C2 (stereo not drawn) noted as 1

Lab book: normalized growth of `Nc1ncn[nH]1` noted as 1.02

Lab book: normalized growth of COc1ccc(C(CN(C)C)C2(O)CCCCC2)cc1 (stereo not drawn) noted as 0.994

Lab book: normalized growth of `CN1CC(=O)N=C1N` noted as 1.04

Lab book: normalized growth of CC1CCc2cc(F)cc3c(=O)c(C(=O)O)cn1c23 (stereo not drawn) noted as 0.984

Lab book: normalized growth of `C[n+]1c2cc(N)ccc2cc2ccc(N)cc21` noted as 0.633

Lab book: normalized growth of `CC[C@@H]1C=C/C=C/C[C@H](C)[C@@H](O)[C@](C)(O)C(=O)[C@H](C)[C@@H](O)[C@H](C)C(=O)[C@H](C)[C@@H](O)[C@H](C)/C=C/C(=O)O[C@H]2[C@@H](C)[C@@H](CC1)O[C@@]1(CC[C@@H](C)[C@@H](C[C@H](C)O)O1)[C@@H]2C` noted as 1.01

Lab book: normalized growth of `COc1ccc(-c2coc3cc(O)ccc3c2=O)cc1` noted as 0.992

Lab book: normalized growth of CC(=O)O[C@H]1C[C@@H](OC(C)=O)C(C)(C)C2CC(=O)[C@]3(C)C(CC[C@@]4(C)[C@H](C(=O)O)OC(=O)C5OC543)[C@]21C (stereo partly drawn) noted as 0.987

Lab book: normalized growth of CNCCC(Oc1ccc(C(F)(F)F)cc1)c1ccccc1 (stereo not drawn) noted as 0.981

Lab book: normalized growth of `Oc1ccc2c(c1)O[C@H](c1ccc(O)c(O)c1)[C@@H](O)C2` noted as 1.03

Lab book: normalized growth of CN1C2CCC1CC(OC(c1ccccc1)c1ccccc1N)C2 (stereo not drawn) noted as 0.989

Lab book: normalized growth of `Cc1ccc(C(=O)Nc2ccc(S(=O)(=O)O)c3cc(S(=O)(=O)O)cc(S(=O)(=O)O)c23)cc1NC(=O)c1cccc(NC(=O)Nc2cccc(C(=O)Nc3cc(C(=O)Nc4ccc(S(=O)(=O)O)c5cc(S(=O)(=O)O)cc(S(=O)(=O)O)c45)ccc3C)c2)c1` noted as 1.03

Lab book: normalized growth of C=C1CCC2[C@](C)(CO)[C@H](O)CC[C@@]2(C)[C@@H]1C/C=C1/C(=O)OC[C@H]1O (stereo partly drawn) noted as 0.988

Lab book: normalized growth of `COc1ccc(C(c2ccc(OC)cc2)C(Cl)(Cl)Cl)cc1` noted as 1.01

Lab book: normalized growth of `Clc1ccc(C(c2ccc(Cl)cc2)C(Cl)(Cl)Cl)cc1` noted as 1.01

Lab book: normalized growth of `CCCCCCCCC(=O)NCc1ccc(O)c(OC)c1` noted as 0.991

Lab book: normalized growth of C[C@]12CCC(=O)C=C1C=CC1C2CC[C@@]2(C)C1CC[C@@]2(O)CCC(=O)O (stereo partly drawn) noted as 1.03

Lab book: normalized growth of CO/N=C1/CN(c2nc3c(cc2F)c(=O)c(C(=O)O)cn3C2CC2)CC1CN (stereo not drawn) noted as 1.03

Lab book: normalized growth of `Nc1nc(=S)c2[nH]cnc2[nH]1` noted as 0.959

Lab book: normalized growth of `CN1C2C[C@H](OC(=O)[C@H](CO)c3ccccc3)C[C@H]1[C@@H](O)C2` noted as 1.02

Lab book: normalized growth of `Cc1[nH]c2ccccc2c1CN(C)C` noted as 1.03

Lab book: normalized growth of C=C[C@@](C)(O)CCC1C(=C)C[C@H](O)C2C(C)(C)CCCC12C (stereo partly drawn) noted as 0.976

Lab book: normalized growth of `Oc1cc(O)c2c(c1)O[C@H](c1ccc(O)c(O)c1)[C@@H](O)C2` noted as 0.988

Lab book: normalized growth of c1ccc2c(c1)CCCC2C1=NCCN1 (stereo not drawn) noted as 1.03

Lab book: normalized growth of COc1c(N2CCNC(C)C2)c(F)cc2c(=O)c(C(=O)O)cn(C3CC3)c12 (stereo not drawn) noted as 0.997

Lab book: normalized growth of `O=c1c(-c2ccc(O)cc2)coc2cc(O)ccc12` noted as 0.98

Lab book: normalized growth of `C[C@H]1COc2c(N3CCN(C)CC3)c(F)cc3c(=O)c(C(=O)O)cn1c23` noted as 1.03

----------
Test: chemical genetic growth profiling, strain panel (AID 1159580);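 note: tested at 20 µM; growth read once vehicle control cultures reached saturation at 30 °C; 1 = growth at the plate median or of vehicle wells; lower values mean less growth of the strain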
Settings: S. cerevisiae deletion strains, growth OD, locus YDR334W, strain swr1, hits give low values
Screen size: about 5,500 compounds; about 2,000 (36%) were called active. About 18% were inconclusive and are not listed. Some of the results follow.
normalized growth by entry:

Please review the following examples before continuing.
CCC[C@H](N[C@@H](C)C(=O)N1[C@H](C(=O)O)C[C@@H]2CCCC[C@@H]21)C(=O)OCC
1.01 (inactive)
COc1ccc([C@H]2Oc3c(I)c(OC)cc(OC)c3C[C@@H]2O)cc1OC
1.02 (inactive)
c1ccc2c(c1)sc1ccccc12
0.871 (active)
CC[C@@]1(O)C[C@H](O[C@H]2C[C@H](N(C)C)[C@H](O)[C@H](C)O2)c2c(cc3c(c2O)C(=O)c2c(O)cccc2C3=O)[C@H]1C(=O)OC
0.959 (inactive)
CCCCCCCCC(=O)NCc1ccc(O)c(OC)c1
0.997 (inactive)
CC[C@@]1(O)C[C@H](O[C@H]2C[C@H](N(C)C)[C@H](O)[C@H](C)O2)c2c(cc3c(c2O)C(=O)c2c(O)ccc(O)c2C3=O)[C@H]1C(=O)OC
0.816 (active)
CC(C)NCC(O)COc1cccc2[nH]ccc12 (stereo not drawn)
0.978 (inactive)

Lab book: normalized growth of `O=C(Oc1cc(OC(=O)c2ccccc2)c2c(c1)O[C@H](c1ccc(OC(=O)c3ccccc3)c(OC(=O)c3ccccc3)c1)[C@@H](OC(=O)c1ccccc1)C2)c1ccccc1` noted as 0.992 (inactive)
